- assay.target: KIT (V559D, V654A) (Homo sapiens, UniProt P10721, V559D/V654A)
- Construct: purchased Eurofins DiscoverX Corporation
- Sequence (P10721 26-976 V559D/V654A): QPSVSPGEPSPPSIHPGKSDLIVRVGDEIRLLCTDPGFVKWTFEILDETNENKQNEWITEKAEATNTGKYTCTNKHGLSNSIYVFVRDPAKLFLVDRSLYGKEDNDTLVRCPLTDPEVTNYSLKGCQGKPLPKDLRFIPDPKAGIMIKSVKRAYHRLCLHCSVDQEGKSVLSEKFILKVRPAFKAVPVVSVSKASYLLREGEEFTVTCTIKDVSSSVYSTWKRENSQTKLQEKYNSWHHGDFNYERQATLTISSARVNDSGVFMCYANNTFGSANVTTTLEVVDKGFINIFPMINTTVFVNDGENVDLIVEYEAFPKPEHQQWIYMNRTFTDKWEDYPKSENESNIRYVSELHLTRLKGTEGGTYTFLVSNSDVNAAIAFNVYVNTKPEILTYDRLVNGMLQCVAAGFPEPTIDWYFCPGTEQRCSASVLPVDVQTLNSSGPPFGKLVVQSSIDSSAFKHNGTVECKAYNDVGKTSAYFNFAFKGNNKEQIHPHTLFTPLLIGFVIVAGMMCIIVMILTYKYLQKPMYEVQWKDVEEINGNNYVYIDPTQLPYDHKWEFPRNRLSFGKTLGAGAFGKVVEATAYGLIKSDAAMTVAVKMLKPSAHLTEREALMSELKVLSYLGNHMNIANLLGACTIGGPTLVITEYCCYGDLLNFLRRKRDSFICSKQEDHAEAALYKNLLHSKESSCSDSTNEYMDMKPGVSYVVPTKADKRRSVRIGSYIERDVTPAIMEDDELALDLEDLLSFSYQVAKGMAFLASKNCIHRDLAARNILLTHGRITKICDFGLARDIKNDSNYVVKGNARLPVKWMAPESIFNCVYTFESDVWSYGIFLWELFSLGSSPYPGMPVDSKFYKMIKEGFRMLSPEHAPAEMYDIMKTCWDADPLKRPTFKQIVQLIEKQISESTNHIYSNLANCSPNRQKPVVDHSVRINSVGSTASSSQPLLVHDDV
- protocol.description: KINOMEscan competition binding screen, KIT (V559D, V654A)
- assay.conditions: read-out: % Ctrl @ 10 μM
- Method: The KINOMEscan™ screening platform (Eurofins DiscoverX Corporation, San Diego, USA) was performed using an active site-directed competition binding assay to quantitatively measure interactions between BK40143, BK40197, BK40195, and BK40196 and more than 450 human kinases and disease relevant mutant variants. […]
observation.type: remaining binding at 10 µM (%)

{"record.smiles": "Cc1cccc(-c2cc3nccc(N4CCOCC4)c3s2)c1", "assay.target": "KIT (V559D, V654A) (Homo sapiens, UniProt P10721, V559D/V654A)", "unit.string": "%", "reported": 21}

A = Cc1cccc(-c2cc3nccc(Nc4cccc(O)c4)c3s2)c1
B = COc1cccc(Nc2ccnc3cc(-c4cccc(C)c4)sc23)c1
C = Cc1cccc(-c2cc3nccc(Nc4ccccc4)c3s2)c1
-- ask Hello, I need these entries ordered by remaining binding at 10 µM, highest reading first. Thanks! Please list each label once, in the requested order.
-- reply C, B, A
(C: 18%, B: 2.5%, A: 1.3%)
